measured.target: STS (Homo sapiens)
experiment.description: Inhibition of STS activity in intact monolayers of JEG-3 cells
IC50 less than 200 nM is T; IC50 greater than or equal to 200 nM is F.

Cn1c(=O)c2c(c3ccc(OS(N)(=O)=O)cc31)CCCCC2    F

Qu. Please check: IC50 for CN(C)S(=O)(=O)Oc1ccc2c3c(c(=O)oc2c1)CCCCC3 , strictly under 200 nM or not?
Ans. F

Qu. Please check: IC50 for NS(=O)(=O)Nc1ccc2c3c(c(=O)[nH]c2c1)CCCCC3 , strictly under 200 nM or not?
Ans. F

----------
measured.target: STS (Homo sapiens)
Sequence (P08842 22-583): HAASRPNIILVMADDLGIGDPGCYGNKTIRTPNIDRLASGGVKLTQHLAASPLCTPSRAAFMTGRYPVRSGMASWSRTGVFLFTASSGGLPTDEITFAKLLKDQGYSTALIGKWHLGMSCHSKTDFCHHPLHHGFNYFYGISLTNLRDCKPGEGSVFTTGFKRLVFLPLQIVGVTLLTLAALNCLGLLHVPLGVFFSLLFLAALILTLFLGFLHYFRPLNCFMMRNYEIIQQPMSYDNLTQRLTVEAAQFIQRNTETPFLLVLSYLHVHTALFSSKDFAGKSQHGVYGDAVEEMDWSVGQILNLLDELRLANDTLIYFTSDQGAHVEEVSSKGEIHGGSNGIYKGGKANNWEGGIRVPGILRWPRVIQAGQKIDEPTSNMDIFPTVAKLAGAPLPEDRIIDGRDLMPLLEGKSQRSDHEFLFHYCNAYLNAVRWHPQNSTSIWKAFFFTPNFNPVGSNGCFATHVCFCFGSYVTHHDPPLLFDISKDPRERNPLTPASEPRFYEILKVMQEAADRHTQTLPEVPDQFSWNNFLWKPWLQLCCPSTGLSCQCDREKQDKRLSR
experiment.description: Inhibition of STS activity in intact monolayers of JEG-3 cells
Type: cell-based
run.parameters: JEG-3, JEG-3 cells, determined at 10 μM
test.readout: inhibition at 10 µM

// solved cases for inhibition at 10 µM follow
NS(=O)(=O)Oc1ccc2c3c(c(OCCCc4ccccc4)nc2c1)CCCCC3    < 10%
NS(=O)(=O)Oc1ccc2c3c(c(=O)[nH]c2c1)CCCCC3    98%
CCCCCn1c(=O)c2c(c3ccc(OS(N)(=O)=O)cc31)CCCCC2    < 10%
CCCCCOc1nc2cc(OS(N)(=O)=O)ccc2c2c1CCCCC2    < 10%

Qu. Notebook: pull reported inhibition at 10 µM for STS (Homo sapiens), entry NS(=O)(=O)Oc1ccc2c3c(c(=O)n(CCCc4ccccc4)c2c1)CCCCC3
Ans. 20%

Qu. Notebook: pull reported inhibition at 10 µM for STS (Homo sapiens), entry COc1nc2cc(OS(N)(=O)=O)ccc2c2c1CCCCC2
Ans. 68%

----------
measured.target: STS (Homo sapiens, UniProt P08842)
experiment.description: Inhibition of STS activity in intact monolayers of JEG-3 cells
test.readout: pIC50
# log scale: pIC50 equals minus log10 of the concentration in mol/L

NS(=O)(=O)Oc1ccc2c3c(c(=O)oc2c1)CCCCCCCCCCC3    6.66
NS(=O)(=O)Oc1ccc2c3c(c(=O)oc2c1)CCCCCCCCCC3    7.00

Qu. Bench note: what pIC50 did NS(=O)(=O)Oc1ccc2oc(=O)c3c(c2c1)CCCCC3 show?
Ans. 6.55

Qu. Bench note: what pIC50 did NS(=O)(=O)Oc1ccc2c3c(c(=O)oc2c1)CCCCCCCC3 show?
Ans. 10.60

Qu. Bench note: what pIC50 did COc1cc2c3c(c(=O)oc2cc1OS(N)(=O)=O)CCCCC3 show?
Ans. 7.11

Qu. Bench note: what pIC50 did NS(=O)(=O)Oc1ccc2c3c(c(=O)[nH]c2c1)CCCCC3 show?
Ans. 6.62

Qu. Bench note: what pIC50 did NS(=O)(=O)Oc1ccc2c3c(c(=O)oc2c1)CCCCCCCCCCCCC3 show?
Ans. 5.80

Qu. Bench note: what pIC50 did NS(=O)(=O)Oc1ccc2c3c(c(=O)oc2c1)CCCCCCC3 show?
Ans. 10.66
